Assayed target: sheep Cyclooxygenase-1 (Cox1), PTGS1 (gene 443551) (UniProt P05979)
Sequence (P05979 whole entry, looked up): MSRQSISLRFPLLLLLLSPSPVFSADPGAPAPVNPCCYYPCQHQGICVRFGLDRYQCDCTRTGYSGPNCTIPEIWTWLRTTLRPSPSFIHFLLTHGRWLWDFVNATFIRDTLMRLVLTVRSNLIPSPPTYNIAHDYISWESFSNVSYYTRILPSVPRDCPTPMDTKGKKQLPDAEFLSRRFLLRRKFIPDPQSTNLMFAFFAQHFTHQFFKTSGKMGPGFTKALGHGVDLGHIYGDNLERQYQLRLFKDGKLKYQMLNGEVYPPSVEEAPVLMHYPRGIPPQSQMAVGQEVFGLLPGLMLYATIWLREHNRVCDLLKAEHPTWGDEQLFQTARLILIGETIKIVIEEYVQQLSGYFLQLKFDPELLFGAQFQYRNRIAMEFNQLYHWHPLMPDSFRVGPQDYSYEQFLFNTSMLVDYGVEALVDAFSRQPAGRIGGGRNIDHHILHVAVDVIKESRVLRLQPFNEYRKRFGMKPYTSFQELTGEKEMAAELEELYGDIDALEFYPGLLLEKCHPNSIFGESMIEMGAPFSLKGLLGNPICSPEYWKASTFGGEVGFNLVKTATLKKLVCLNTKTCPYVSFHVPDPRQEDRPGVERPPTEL
Assay details: NVS_ENZ_oCOX1: NovaScreen (NVS) Enzymatic Assay for sheep Cyclooxygenase-1 (Cox1) (AID 2283239);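 note: actives reduce cyclooxygenase activity so potencies are for inhibitors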
Inconclusive results are not listed. Calls of active or inactive are those of the source. Rule for the calls: active = hit-call score of the fitted dose curve at least 0.9, where 1 is the maximum; inconclusive = response in the unintended direction; inactive = score below 0.9.
Reported endpoint: AC50

Identify AC50 associated with the compound CC(C)(C)C(=O)CCl inactive

# return recorded AC50 for entry N#Cc1cccc(C#N)c1 29.2 µM (active)

State its AC50: c1ccc(Nc2ccc3ccccc3c2)cc1 inactive

Give AC50 for the following compound: O=[N+]([O-])c1ccccc1Cl inactive

* * *

Read-out: Secreted IgG (sIgG), gene 3500
Assay details: BSK_BT_sIgG: BioMAP Diversity Plus: BT Assay for Secreted IgG (sIgG) Biomarker Activity (AID 2284226)
Condition parameters: primary human B cells with PBMC
Activity calls are given as the source filed them. How the source made its calls: active means hit-call score of the fitted dose curve at least 0.9, where 1 is the maximum; inactive means score below 0.9.
# output must be one of yes (active), no (inactive)

Give the logged outcome of this assay for the following molecule: O=c1c2ccccc2c(=O)c2c1cc(Cl)c1[nH]c3c([nH]c12)c(Cl)cc1c(=O)c2ccccc2c(=O)c13 no

# outcome recorded in this test, key = O=P1(NCCCl)OCCCN1CCCl (configuration not stated) no

Which outcome was entered for the molecule CCC(C)c1cc([N+](=O)[O-])cc([N+](=O)[O-])c1OC(=O)C=C(C)C (configuration not stated) in this test? yes

Field: outcome | Entry: C=CCN(CC=C)C(=O)C(Cl)Cl no

Per the records of this test, what outcome belongs to O=[N+]([O-])C=Cc1ccccc1 ? yes

Short answer needed: outcome of this test for CC(C)(C)C(=O)CCl ? yes

Hello, I am checking results. What call was entered for CCc1cc(C)cc(CC)c1-c1c(OC(=O)C(C)(C)C)n2n(c1=O)CCOCC2 ? no

* * *

Assay details: ATG_GATA_CIS: Attagene CIS-FACTORIAL HepG2 Assay for human GATA Binding Protein (AID 2282944)
Condition parameters: HepG2 GATA cis-element reporter, Attagene multiplex mRNA; actives raise or lower the signal
Active and inactive are the calls of the source. The calls were made as follows: active = hit-call score of the fitted dose curve at least 0.9, where 1 is the maximum; inactive = score below 0.9.
Can you answer with just one of these options? active, inactive

What is the recorded call for this compound in the test? Nc1c(Cl)c(Cl)c(Cl)c(Cl)c1Cl inactive

// outcome(item) with item = O=[N+]([O-])O.O=[N+]([O-])O.[Cd] active

Field: outcome | Entry: Nc1ccc(-c2ccc(N)c(N)c2)cc1N inactive

So what was the verdict on CC1(C)[C@H](C(=O)O[C@H](C#N)c2cccc(Oc3ccccc3)c2)[C@@H]1C=C(Br)Br in this test? inactive

For this compound, state the assay outcome: CN(C)C(=O)C(c1ccccc1)c1ccccc1 inactive

Write down the call the test reported for this compound. Item: Cc1cc(C)c(C2=C(OC(=O)CC(C)(C)C)C3(CCCC3)OC2=O)c(C)c1 inactive

Assay result, entry CCOP(O)OCC — outcome? inactive

In this assay, the call recorded for C[C@]12CC[C@H]3[C@@H](CC[C@@]45O[C@@H]4C(O)=C(C#N)C[C@]35C)[C@@H]1CC[C@@H]2O was what? inactive

State the result this test recorded for O=c1c2ccccc2c(=O)c2c1cc(Cl)c1[nH]c3c([nH]c12)c(Cl)cc1c(=O)c2ccccc2c(=O)c13 . inactive

Assay outcome for CCC1CCC(=O)O1 (configuration not stated) : what was it? inactive

Tell me the recorded outcome of this test for CNC(=O)Oc1cc(C)c(SC)c(C)c1 . inactive

Just curious, what result did CC(C)(C)C(=O)CCl get here? inactive

* * *

Assay details: ATG_TCF_b_cat_CIS: Attagene CIS-FACTORIAL HepG2 Assay for human T-Cell-Factor with beta-catenin (TCF/b-cat) (AID 2282965)
Condition parameters: HepG2 TCF/beta-catenin cis-reporter transcription, actives raise or lower the signal
Activity calls are given as the source filed them. The calls were made as follows: active = hit-call score of the fitted dose curve at least 0.9, where 1 is the maximum; inactive = score below 0.9.
// classify into 1 (active), 0 (inactive)

Give the logged outcome of this assay for the following compound: N#CCNCC#N 0

Test call, this compound: COc1cc(OC)nc(Oc2cccc(Oc3nc(OC)cc(OC)n3)c2C(=O)O)n1 0

Could you check what this test reported for Clc1ccc(-c2ccccc2)cc1 ? 0

What is the recorded call for this compound in the test? [CH3][Sn]([Cl])([Cl])[Cl] 0

What classification did O=C(O)COc1ccccc1 end up with in this test? 0

Check the results log: what was the call for CC(C)COP(=O)(OCC(C)C)OCC(C)C ? 0

What classification did CCOP(=O)(OCC)OCC end up with in this test? 0

Recorded test call requested for CC(C)c1ccc(O)cc1 1

# outcome recorded in this test, key = CC(C)(C)C(O)C(Oc1ccc(-c2ccccc2)cc1)n1cncn1 (stereo not given) 1

Which outcome did this test record for the compound CCc1cc(C)cc(CC)c1-c1c(OC(=O)C(C)(C)C)n2n(c1=O)CCOCC2 ? 0

Any idea what this test logged for C=CCc1ccc(OC(=O)Cc2ccccc2)c(OC)c1 ? 0

Could you kindly confirm the outcome this assay logged for CCCCOP(=O)(O)OCCCC ? 0

Please let me know the test result on file for C[N+](=O)[O-] . 0

For this compound, state the assay outcome: Oc1ccc(Cl)cc1 0

Please let me know the test result on file for C=CCO . 0

Which result was noted for this compound in the test: CCOC(=O)N(C)N=O 0

Hi, sorry to bother you, what did the test record for CCc1cccc(C)c1N(C(=O)CCl)[C@@H](C)COC ? 0

Could you please tell me the result logged for Nc1ccc([N+](=O)[O-])cc1N in this assay? 0

Test call, this compound: CCCCCc1cc(O)cc(O)c1 0

Just curious, what result did CC(C)(O)C#N get here? 0

Test call for this compound, please: CCOC(=O)NC(=S)Nc1ccccc1NC(=S)NC(=O)OCC 0

How did this test come out for CC=Cc1ccc2c(c1)OCO2 ? 1

So what was the verdict on C=CC(=O)OCCO in this test? 0

Per the records of this test, what outcome belongs to CC1CCC(=O)O1 (stereo not given) ? 0

Name the outcome recorded for CN1C[C@H](C(=O)N[C@]2(C)O[C@@]3(O)[C@@H]4CCCN4C(=O)[C@H](Cc4ccccc4)N3C2=O)C=C2c3cccc4[nH]cc(c34)C[C@H]21 in the assay. 1

Give the logged outcome of this assay for the following compound: CN(C)CCC#N 0

# lookup: test call for Cc1cc(C)c(C2=C(OC(=O)CC(C)(C)C)C3(CCCC3)OC2=O)c(C)c1 0

Test call, this compound: CC[N+](=O)[O-] 0

Hello, I am checking results. What call was entered for CCCCCCCCCCCC#N ? 0

Could you check what this test reported for CCOC(=O)COc1ccc(Cl)cc1Cl ? 0

* * *

Assayed target: PGR (gene 5241) (UniProt P06401)
Sequence (P06401 whole entry, looked up): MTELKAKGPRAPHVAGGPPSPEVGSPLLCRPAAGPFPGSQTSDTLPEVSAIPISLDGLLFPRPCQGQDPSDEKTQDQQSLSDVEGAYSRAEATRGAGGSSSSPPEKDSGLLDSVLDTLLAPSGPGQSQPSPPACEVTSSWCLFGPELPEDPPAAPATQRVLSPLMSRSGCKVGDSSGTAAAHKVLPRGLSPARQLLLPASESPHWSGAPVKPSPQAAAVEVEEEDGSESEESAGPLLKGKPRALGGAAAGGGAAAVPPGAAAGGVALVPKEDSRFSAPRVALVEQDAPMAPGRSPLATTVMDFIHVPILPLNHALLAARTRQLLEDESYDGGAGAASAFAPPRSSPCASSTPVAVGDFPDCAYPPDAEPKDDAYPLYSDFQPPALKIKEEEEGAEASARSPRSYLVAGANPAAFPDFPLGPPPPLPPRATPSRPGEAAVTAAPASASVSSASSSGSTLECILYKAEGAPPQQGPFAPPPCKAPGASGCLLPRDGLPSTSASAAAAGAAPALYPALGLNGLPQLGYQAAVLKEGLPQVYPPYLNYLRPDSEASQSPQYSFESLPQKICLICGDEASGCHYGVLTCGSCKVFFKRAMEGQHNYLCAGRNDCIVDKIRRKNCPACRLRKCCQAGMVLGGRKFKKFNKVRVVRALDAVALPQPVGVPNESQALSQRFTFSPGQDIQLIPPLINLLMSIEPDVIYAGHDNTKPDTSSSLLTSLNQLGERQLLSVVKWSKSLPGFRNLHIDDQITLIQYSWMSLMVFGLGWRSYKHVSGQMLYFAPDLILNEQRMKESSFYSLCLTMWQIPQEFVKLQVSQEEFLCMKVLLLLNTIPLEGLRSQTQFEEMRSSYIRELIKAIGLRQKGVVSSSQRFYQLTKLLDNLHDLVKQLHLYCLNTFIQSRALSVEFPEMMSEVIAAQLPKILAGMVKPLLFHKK
Assay details: TOX21_PR_BLA_Followup_Antagonist_ratio: Tox21 HEK293 Progesterone Receptor (PR) Antagonism Beta-lactamase Follow-Up Assay, Ratio (AID 2283934);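 note: PR-UAS-bla HEK293T cells stimulated with 1 nM R5020 agonist for 16 hr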
Calls of active or inactive are those of the source. The calls were made as follows: active = hit-call score of the fitted dose curve at least 0.9, where 1 is the maximum; inconclusive = response in the unintended direction; inactive = score below 0.9.
Answer with one of the outcomes label 1 (active), label 0 (inactive)

Could you please tell me the result logged for C[C@]12CCC(=O)C(O)=C1CC[C@@H]1[C@@H]2CC[C@]2(C)C(=O)CC[C@@H]12 in this assay? label 1

GET /call?item= CC[C@]1(O)CC[C@H]2[C@@H]3CCC4=CCCC[C@@H]4[C@H]3CC[C@@]21C returns the recorded outcome of this test. label 0

# lookup: test call for C[C@]12CC[C@H]3[C@@H](CC[C@@]45O[C@@H]4C(O)=C(C#N)C[C@]35C)[C@@H]1CC[C@@H]2O label 0

Call for entry CC(=O)c1cc2c(cc1C)C(C)(C)C(C)CC2(C)C (stereo not given) : label 1

What is the recorded call for this compound in the test? C[C@]12CC[C@H]3[C@@H](CCC4=CC(=O)CC[C@@H]43)[C@@H]1CC[C@@H]2O label 0

* * *

Assay details: ATG_XTT_Cytotoxicity: Cytotoxicity Assessment in the Attagene TRANS-FACTORIAL HepG2 Assay (AID 2283584)
Records with an inconclusive call do not appear. Activity calls are given as the source filed them. How the source made its calls: active means hit-call score of the fitted dose curve at least 0.9, where 1 is the maximum; inconclusive means response in the unintended direction; inactive means score below 0.9.
Pick one: active, inactive

I would be grateful if you could indicate the recorded call for CCNCC . inactive

Can you look up the reported call for CCOC(=O)C1OC1(C)c1ccccc1 (stereo unspecified) for me? inactive

Check the results log: what was the call for CC(C)(C)C(=O)CCl ? inactive

What is the recorded call for this compound in the test? C=CC(=O)OCCO inactive

Tell me the recorded outcome of this test for O=C(O)C(Br)Br . inactive

Please let me know the test result on file for O=[N+]([O-])C=Cc1ccccc1 . active

Per the records of this test, what outcome belongs to CN(C)CCC#N ? inactive

So what was the verdict on CCC(C)(C)O in this test? inactive

Please share the test call associated with C=CCN(CC=C)C(=O)C(Cl)Cl . inactive

Outcome logged for c1cc(OCC2CO2)ccc1Cc1ccc(OCC2CO2)cc1 (stereo unspecified) in this assay: inactive

Kindly provide the recorded test outcome for the following compound: CCOP(O)OCC inactive

How was O=C(O)c1cc[c]([Hg][Cl])cc1 classified in this test? inactive

Give the logged outcome of this assay for the following compound: C=C(Cl)Cl inactive

Check the results log: what was the call for O=C(CCN1CC1)OCC(CO)(COC(=O)CCN1CC1)COC(=O)CCN1CC1 ? inactive

State the result this test recorded for CN(C)N . inactive

Recorded test call requested for Nc1ccc(-c2ccc(N)c(N)c2)cc1N inactive

Identify the outcome logged in this assay for the compound shown: CC(C)(O)C#N inactive

Recorded test call requested for Cc1cc(C)c(C2=C(OC(=O)CC(C)(C)C)C3(CCCC3)OC2=O)c(C)c1 inactive

Would you mind telling me which call this test gave N#CCCCl ? inactive

Record lookup: outcome of this test for CC(C)(c1cc(Cl)c(O)c(Cl)c1)c1cc(Cl)c(O)c(Cl)c1 ? inactive

For O=CNC(N1CCN(C(NC=O)C(Cl)(Cl)Cl)CC1)C(Cl)(Cl)Cl (stereo unspecified) , which call appears in the assay record? inactive

Each compound tested received a call. Report the one for CCC(C)c1cc(C(C)(C)C)cc(-n2nc3ccccc3n2)c1O (stereo unspecified) . inactive

Hello, I am checking results. What call was entered for Nc1ccccc1C(=O)OCCc1ccccc1 ? inactive

Please indicate how the test categorized CCCOC(=O)c1ccccc1C(=O)OCCC . inactive

What is the recorded call for this compound in the test? O=C(NC(=O)c1c(F)cccc1F)Nc1ccc(Oc2ccc(C(F)(F)F)cc2Cl)cc1F inactive

What call does the record list for Nc1ccccc1C(=O)Oc1ccc2ccccc2c1 ? inactive

Please state the recorded outcome for this compound: [N-]=[N+]=CC(=O)OC[C@H](N)C(=O)O inactive

Could you check what this test reported for CCOP(=O)(OCC)OCC ? inactive

Given C=CC(=O)OCCCCOC(=O)C=C , state the outcome it received in this test. inactive

Any idea what this test logged for C=COCCCl ? inactive

Hi, do you know how CCOC(=O)COc1ccc(Cl)cc1Cl came out in this test? inactive
